tested on: spinal cord-injured rats; experiment: Inhibitory activity on detrusor hyperreflexia (cystometry test); format: in vivo, rat; conditions: 1 mg/kg p.o., after 5 hrs., average ± standard error
measured-endpoint: pre-micturition contractions (relative value, before administration = 100) (%)
Write it as a number; the unit % goes unstated.

Dear colleague, I am looking for the recorded pre-micturition contractions (relative value, before administration = 100) of the following compound: CC(C)(C(=O)[O-])C(=O)Nc1cccc2c1C(=O)c1sccc1CS2(=O)=O.[Na+] [Compound 3] 52.3

Follow-up entry: CC(O)(C(=O)Nc1ccc(Cl)c2c1C(=O)c1sccc1CS2(=O)=O)C(F)(F)F (stereo not shown) [Compound 6] 69.0

Follow-up entry: CC(C)(C)C(=O)Nc1cccc2c1C(=O)c1sccc1CO2 [Compound 5] 44.8

Follow-up entry: C[C@](O)(C(=O)Nc1cccc2c1C(=O)c1sccc1CO2)C(F)(F)F [Compound 4] 42.6

Attribution: patent US7276532B2
